- TEST: basal MM1S mitochondrial membrane potential changes, profiling panel, cell-based, JC-1 fluorescence, 24 h, 100 nL compound (AID 1170); note: test concentration not given here
- TEST_PARAMETERS: higher = more signal
OUTCOME_MEASURE: z-score
Lab note: record just the number, no unit beside it.

For the molecule shown here, "C=CCOC(=O)[C@H]1[C@@H]2C(=O)O[C@@H](c3ccccc3)[C@@H](c3ccccc3)N2[C@@H](c2ccc(OCCOC(=O)[C@@H]3C[C@@H]4C(=O)NCC(=O)N4[C@@H]3c3ccc(O)cc3)cc2)[C@]12C(=O)Nc1ccccc12" , give the reported z-score.
-1.12

For the molecule shown here, "COC(=O)[C@@]1(Cc2ccccc2)N=C(c2ccc(OCCCO)cc2)O[C@H]1c1ccccc1N=[N+]=[N-]" , give the reported z-score.
-0.896

For the molecule shown here, CC(C)(C)N1CC=CC23O[C@@H]4C=CCOC(=O)[C@@H]4[C@H]2C(=O)N(CCCCCO)[C@@H]3C1=O (stereo not given in full) , give the reported z-score.
0.388

For the molecule shown here, CCOC(=O)C1=CCC(c2ccc(C#N)cc2)N(S(=O)(=O)c2ccc(C)cc2)C1 (stereo not given) , give the reported z-score.
-1.71

For the molecule shown here, "CCCCC=C[C@@H](NC(=O)c1cccs1)c1ccccc1" , give the reported z-score.
-1.73

For the molecule shown here, "CC(C)NC(=O)[C@@H]1c2ccccc2C(=O)N(Cc2ccccc2Cl)[C@H]1c1ccc(CO)cc1" , give the reported z-score.
-0.615

###

- TEST: modulators of HCV replicon luciferase signal, primary screen, HCV replication inhibitor project, Huh7 cells, luciferase reporter (AID 1109);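 note: huh7 hepatoma cells harbouring a luciferase neomycin HCV replicon reporter; luciferase luminescence as measure of HCV replicon replication; test concentration not given here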
- TEST_PARAMETERS: 48 h, higher = more signal
OUTCOME_MEASURE: z-score
Lab note: record just the number, no unit beside it.

Below, 2 molecules whose answers are already recorded.
CN1C(=O)C2C(C1=O)C1C=C(CCCO)C2C(c2cccs2)N1C (stereo unspecified)
-0.999
O=C1OCC=C[C@H]2OC34C=CCN(c5ccc(Cl)cc5)C(=O)[C@H]3N(CCCCCCO)C(=O)[C@@H]4[C@@H]12 (stereo partly specified)
-0.493

For the molecule shown here, "O=C(O)[C@@]1(Cc2ccccc2)N=C(c2ccc(OCCCO)cc2)O[C@H]1c1ccccc1" , give the reported z-score.
-0.0284

For the molecule shown here, O=C1OCCC=C[C@H]2OC34C=CCN(Cc5ccccc5)C(=O)[C@H]3N(CCCCCCO)C(=O)[C@@H]4C12 (stereo partly specified) , give the reported z-score.
-0.422

For the molecule shown here, CCOC(=O)C1=CCC(c2ccc([N+](=O)[O-])cc2)N(S(=O)(=O)c2ccc(C)cc2)C1 (stereo unspecified) , give the reported z-score.
-2.35

For the molecule shown here, "C=C(COC)/C(=C/C[C@H](OC(=O)c1ccncc1)c1cccc(OCCO)c1)c1cc(C(=O)OC)ccc1OC" , give the reported z-score.
-1.67

For the molecule shown here, "C=CCN1C(=O)[C@]2(O[C@H](CCO)[C@@H]([Si](C)(C)c3ccc(OC)cc3)[C@@H]2C)c2cc(NC(=O)[C@H](C)O)ccc21" , give the reported z-score.
-4.97

For the molecule shown here, "CCOC(=O)[C@H]1C/C=C/C[C@H](C(=O)OCC)C(=O)O[C@H]2[C@@H](OC)O[C@H](CO)[C@@H](OC(=O)Nc3ccc4c(c3)OCO4)[C@@H]2OC1=O" , give the reported z-score.
-3.52

For the molecule shown here, "O=C(O)[C@H]1C[C@H]2C(=O)NCC(=O)N2[C@H]1c1ccc(O)cc1" , give the reported z-score.
1.81

For the molecule shown here, "COCCOC(=O)N1C(=O)[C@@]2(c3cc(C#CCNC(N)=O)ccc31)[C@H](c1ccc(OCCO)cc1)N1[C@H](c3ccccc3)[C@H](c3ccccc3)OC(=O)[C@H]1[C@@H]2C(=O)N1CCc2cc(OC)c(OC)cc2C1" , give the reported z-score.
-0.966

For the molecule shown here, "Cc1ccc(S[C@]2(C(=O)NCC(C)C)CC(=O)N(Cc3ccccc3Cl)[C@@H]2c2ccc(CO)cc2)cc1" , give the reported z-score.
-1.73

For the molecule shown here, "CC(=O)NCCCC[C@@H]1NC(=O)[C@@H]2C[C@H](C(=O)NCCCCN(C)C)[C@H](c3ccc(O)cc3)N2C1=O" , give the reported z-score.
-0.581

For the molecule shown here, CCOC(=O)C1=CCC(C(C)(C)C)N(S(=O)(=O)c2ccc(C)cc2)C1 (stereo unspecified) , give the reported z-score.
-2.59

For the molecule shown here, "Cc1ccc(S[C@]2(C(=O)NCCN3CCOCC3)CC(=O)N(Cc3cc(C(F)(F)F)cc(C(F)(F)F)c3)[C@@H]2c2ccc(CO)cc2I)cc1" , give the reported z-score.
-1.59

For the molecule shown here, Cc1cc(C)cc(N2C(=O)CS(=O)(=O)C2c2cccc([N+](=O)[O-])c2)c1 (stereo unspecified) , give the reported z-score.
-0.0865

For the molecule shown here, "COCCOC(=O)N1C(=O)[C@@]2(c3cc(C#CCC(C(=O)OC)C(=O)OC)ccc31)[C@H](c1ccc(O)cc1)N1[C@H](c3ccccc3)[C@H](c3ccccc3)OC(=O)[C@H]1[C@@H]2C(N)=O" , give the reported z-score.
-0.633

For the molecule shown here, CCN(CC)c1ccc(N2CC=CC34O[C@@H]5/C=C\CCCOC(=O)C5[C@H]3C(=O)N(C(CO)C(C)C)[C@@H]4C2=O)cc1 (stereo partly specified) , give the reported z-score.
-0.132

For the molecule shown here, "C[C@]1(C(=O)NCc2ccccc2)c2ccccc2C(=O)N(Cc2cc(F)cc(C(F)(F)F)c2)[C@H]1c1ccc(CO)cc1" , give the reported z-score.
-0.44

For the molecule shown here, O=C1C2C=CC(C(O)c3ccc(-c4ccccc4)s3)N(n3cnnc3)C2C(=O)N1Cc1ccccc1 (stereo unspecified) , give the reported z-score.
-0.602

For the molecule shown here, "CC(C)NC(=O)[C@@]1(Cc2ccccc2I)c2ccccc2C(=O)N(Cc2ccccc2)[C@H]1c1ccc(CO)cc1" , give the reported z-score.
-1.09

For the molecule shown here, "O=c1cccc(C=Cc2ccccc2)o1" , give the reported z-score.
-0.854

For the molecule shown here, "COC(=O)C[C@H]1O[C@]2(C(=O)N(Cc3ccccc3)c3ccc(NC(C)=O)cc32)[C@@H](C)[C@@H]1[Si](C)(C)c1ccc(OC)cc1" , give the reported z-score.
-2.23

For the molecule shown here, "CC(C)CNC(=O)[C@@]1(c2ccc([N+](=O)[O-])cc2)CC(=O)N(CC23CC4CC(CC(C4)C2)C3)[C@@H]1c1ccc(CO)cc1I" , give the reported z-score.
-3.18

###

- TEST: small-molecule binders of probe aLefty1, primary screen, biochemical, small-molecule microarray, 635/667 nm fluorescence (AID 1153);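 note: score merges spot fluorescence with signal-to-noise ratio from the scanned slide images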
- TEST_PARAMETERS: higher = more signal
// reported composite z-score for each item listed
Lab note: record just the number, no unit beside it.

Below, 5 compounds whose answers are already recorded.
CC(C)c1ccc(NN2C(C(O)c3c(F)cccc3Cl)C=CC3C(=O)N(c4ccccc4)C(=O)C32)cc1 (stereo unspecified)
1.22
COc1ccc(C#Cc2ccc3c(c2)[C@]2(C(=O)N3)[C@H](C(=O)NC[C@H](O)c3ccccc3)[C@H]3C(=O)O[C@H](c4ccccc4)[C@H](c4ccccc4)N3[C@@H]2c2ccccc2OCCO)cc1
0.29
CC(C)CNC(=O)[C@@]1(c2ccc([N+](=O)[O-])cc2)CC(=O)N(CC23CC4CC(CC(C4)C2)C3)[C@@H]1c1ccc(CO)cc1
0.227
[N-]=[N+]=NCc1ccccc1[C@H]1OC(c2ccc(OCCCO)cc2)=N[C@@]1(CCS(=O)(=O)c1ccccc1)C(=O)N1CCOCC1
1.08
COC(=O)[C@@]1(Cc2ccc(OC)cc2)[C@H]2c3cc(C(=O)N4CCCC4)n(CCc4c[nH]c5cc(F)ccc45)c3C[C@H]2CN1C(=O)c1ccccc1
1.27

Alright, here's another compound for you.
For the compound shown here, O=C1OCCC=C[C@H]2OC34C=CCN(Cc5ccccc5)C(=O)[C@H]3N(CCCCCO)C(=O)[C@@H]4C12 (stereo partly specified) , give the reported composite z-score.
0.282

###

- TEST: binders of probe aFST on microarray, primary screen, stem cell growth factor project, biochemical, small-molecule microarray, fluorescence 635/667 (AID 1086);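 note: score merges 667 nm fluorescence with signal-to-noise of each printed compound spot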
- TEST_PARAMETERS: higher = more signal
OUTCOME_MEASURE: composite z-score

Below, 5 compounds whose answers are already recorded.
CCCC[C@@H]1C[C@H]1[C@@H](NC(=O)c1ccc(-c2ccccc2)cc1)c1ccc(-c2ccccc2)cc1
0.0469
COc1ccc(CCNC(=O)[C@@]2(c3ccc([N+](=O)[O-])cc3)CC(=O)N(CC34CC5CC(CC(C5)C3)C4)[C@@H]2c2ccc(CO)cc2)cc1
0.298
O=C(CS)NCCCCCCNC(=O)[C@H]1C[C@H]2C(=O)N3CCC[C@H]3C(=O)N2[C@H]1c1cccc(OCCO)c1
0.189
[N-]=[N+]=NCc1ccccc1C[C@@]1(C(=O)NCC(O)CO)N=C(c2ccc(OCCCO)cc2)O[C@@H]1c1ccccc1CN=[N+]=[N-] (some centres not stated)
0.704
O=C(NCc1ccccc1)[C@]1(CCS(=O)(=O)c2ccccc2)N=C(c2ccc(OCCCO)cc2)O[C@@H]1c1ccccc1
1.31

For the compound shown here, "C=C[C@@H](COC(C)=O)N(Cc1ccccc1[N+](=O)[O-])S(=O)(=O)c1ccc(Br)cc1" , give the reported composite z-score.
0.399

For the compound shown here, "CC(C)(C)OC(=O)CC[C@@]1(C(=O)O)N=C(c2ccc(OCCCO)cc2)O[C@@H]1c1ccccc1N=[N+]=[N-]" , give the reported composite z-score.
0.457

Each recorded value in this set is attributed to PubChem BioAssay.
